- Measurement target: Nuclear receptor coactivator 3 (Homo sapiens) (UniProt Q9Y6Q9)
- Sequence (Q9Y6Q9 whole entry, looked up): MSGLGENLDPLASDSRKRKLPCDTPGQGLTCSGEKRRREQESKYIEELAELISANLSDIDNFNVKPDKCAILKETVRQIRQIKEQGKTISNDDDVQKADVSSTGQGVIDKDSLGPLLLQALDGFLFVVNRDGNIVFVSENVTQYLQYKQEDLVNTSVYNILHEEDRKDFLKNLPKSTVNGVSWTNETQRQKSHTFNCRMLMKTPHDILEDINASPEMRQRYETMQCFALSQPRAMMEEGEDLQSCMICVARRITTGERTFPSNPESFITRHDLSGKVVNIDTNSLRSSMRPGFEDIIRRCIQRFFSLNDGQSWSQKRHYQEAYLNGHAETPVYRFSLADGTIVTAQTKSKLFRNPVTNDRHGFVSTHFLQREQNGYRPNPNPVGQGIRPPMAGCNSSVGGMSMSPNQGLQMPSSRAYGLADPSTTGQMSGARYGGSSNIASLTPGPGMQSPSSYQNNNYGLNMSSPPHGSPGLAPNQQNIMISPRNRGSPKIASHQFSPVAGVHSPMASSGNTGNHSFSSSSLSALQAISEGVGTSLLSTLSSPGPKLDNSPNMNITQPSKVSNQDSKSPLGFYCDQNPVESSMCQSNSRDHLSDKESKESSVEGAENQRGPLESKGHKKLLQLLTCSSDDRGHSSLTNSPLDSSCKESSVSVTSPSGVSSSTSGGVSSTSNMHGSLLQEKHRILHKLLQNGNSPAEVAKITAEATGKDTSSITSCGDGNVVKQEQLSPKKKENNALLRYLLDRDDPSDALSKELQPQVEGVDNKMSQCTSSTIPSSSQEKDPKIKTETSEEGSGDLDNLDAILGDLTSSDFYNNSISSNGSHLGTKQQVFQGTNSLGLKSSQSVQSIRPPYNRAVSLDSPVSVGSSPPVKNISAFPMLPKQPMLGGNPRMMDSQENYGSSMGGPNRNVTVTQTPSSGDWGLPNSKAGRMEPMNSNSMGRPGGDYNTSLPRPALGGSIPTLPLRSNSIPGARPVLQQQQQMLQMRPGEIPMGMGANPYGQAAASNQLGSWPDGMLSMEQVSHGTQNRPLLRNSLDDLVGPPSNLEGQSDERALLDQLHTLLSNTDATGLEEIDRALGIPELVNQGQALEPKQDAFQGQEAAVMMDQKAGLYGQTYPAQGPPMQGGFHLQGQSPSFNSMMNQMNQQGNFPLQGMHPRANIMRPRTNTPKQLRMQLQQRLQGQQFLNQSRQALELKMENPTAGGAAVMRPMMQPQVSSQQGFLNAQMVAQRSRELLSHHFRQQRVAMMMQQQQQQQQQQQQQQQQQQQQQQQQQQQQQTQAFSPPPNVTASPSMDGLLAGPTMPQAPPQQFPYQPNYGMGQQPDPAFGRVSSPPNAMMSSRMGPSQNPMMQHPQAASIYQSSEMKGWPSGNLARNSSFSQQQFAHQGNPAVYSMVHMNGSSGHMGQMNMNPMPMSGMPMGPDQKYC
- Test protocol: SRC3 coactivator transcriptional activity inhibitors, confirmation, cell-based, luminescence, quadruplicate (AID 588792);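 also: 0% = DMSO treated cells and 100% = gossypol at 36 µM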
- Condition info: HEK293 GAL4-SRC3 luciferase reporter, at 3.6 µM
Calls of active or inactive are those of the source.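 The calls were made as follows: active = mean inhibition over 43.08%, the solvent-only control mean plus 3 SD; inactive = the rest.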
Choose one outcome from this list and give only that: active, inactive

{"columns": ["Compound", "Label"],
 "data": [
  ["CCc1ccc(-c2nc(CSCC(=O)NCc3ccco3)c(C)o2)cc1", "inactive"],
  ["O=C(COc1ccc(Cl)cc1Cl)Nc1ccccn1", "active"],
  ["CCCCCCCCCCn1ccc(=N)cc1", "active"],
  ["CN(C)C=Nc1c(C(=O)c2ccccc2)sc2nccc(N(C)C)c12", "inactive"],
  ["COc1ccc2cc3c(N)nn(C(=O)c4ccccc4Cl)c3nc2c1", "active"]
]}

Per the assay record, what outcome was assigned to "O=C(CSc1nnc(COc2ccc(Cl)cc2)o1)N1CCOCC1" ?
inactive

====

- Test protocol: VP16 transactivation inhibitors, counter-screen for SRC1 inhibitor project, cell-based, luminescence, high throughput (AID 588824)
- Condition info: cell-based VP16 transactivation luciferase luminescence; at 3.6 µM
Active and inactive are the calls of the source. Rule as the data show it: active = inhibition above about 25%; inactive = the rest.
Choose one outcome from this list and give only that: label 1 (active), label 0 (inactive)

Recorded results for 3 compounds are shown here.
{"columns": ["Compound", "Label"],
 "data": [
  ["O=C(NNc1ccnc2cc(Cl)ccc12)C1CCCCC1", "label 1"],
  ["COc1ccc(C(=O)n2cc(C(=O)c3cc(C)ccc3O)cn2)cc1OC", "label 0"],
  ["CCN(CC)c1ccc(/C=N/Nc2nc3ccccc3[nH]2)c(O)c1", "label 0"]
]}

Per the assay record, what outcome was assigned to "COCCn1c(SCC(=O)Nc2cccc(NC(C)=O)c2)nc2c([nH]c3ccccc32)c1=O" ?
label 0

Per the assay record, what outcome was assigned to "Cc1ccccc1C(=O)N1CCN(c2ccc(NC(=O)c3ccc4c(c3)OCCO4)cc2)CC1" ?
label 1

Per the assay record, what outcome was assigned to CCOC(=O)C(C(C)=O)c1c(Br)c(O)c(O)c2c(C(=O)c3ccc(C)cc3)coc12 (stereo unspecified) ?
label 1

Per the assay record, what outcome was assigned to "CN(C)c1ccc(C=c2c3ccccc3n3c2cc(-c2ccccc2)[n+]3C)cc1" ?
label 1

Per the assay record, what outcome was assigned to "C=CS(=O)(=O)N(Cc1ccc(Cl)c(Cl)c1)C[C@@H](O)CO" ?
label 0

Per the assay record, what outcome was assigned to "CN(C1CCCCC1)S(=O)(=O)c1ccc(NC(=O)C2CCCCC2)cc1" ?
label 0

Per the assay record, what outcome was assigned to "O=C1C(Nc2ccccc2)=C(N2CCCCC2)C(=O)c2ccccc21" ?
label 1

Per the assay record, what outcome was assigned to "COc1ccc(CC(=O)Nc2ccc3c(c2)CCC3)cc1OC" ?
label 0

Per the assay record, what outcome was assigned to "CCN1/C(=C/c2ccc3cc(C)ccc3[n+]2CC)Sc2ccccc21" ?
label 1

Per the assay record, what outcome was assigned to "Nc1nonc1-n1nnc(C(=O)N/N=C/c2cc(Br)ccc2O)c1CSC1=NCCS1" ?
label 1

Per the assay record, what outcome was assigned to "COc1ccc(Cc2nnc(N/N=C/c3ccccc3O)[nH]c2=O)cc1OC" ?
label 1

Per the assay record, what outcome was assigned to "CCOc1ccc(CCN2C(=S)N([C@@H](CC(C)C)CN3CCC[C@@H]3CN3C(=S)NC[C@@H]3CC(C)C)C[C@@H]2CC(C)C)cc1" ?
label 0

Per the assay record, what outcome was assigned to CC(C)(C)NC(=O)C(c1ccncc1)N(Cc1cccs1)C(=O)Cn1nnc(-c2ccc(F)cc2)n1 (stereo unspecified) ?
label 1

Per the assay record, what outcome was assigned to O=C(CCl)N1N=C(c2ccco2)CC1c1ccco1 (stereo unspecified) ?
label 0

Per the assay record, what outcome was assigned to "NC(=S)N/N=C1\CCSc2ccc(Cl)cc21" ?
label 0

Per the assay record, what outcome was assigned to CCCNC(=O)C1(C)CCCN(Cc2cccc(C#N)c2)C1 (stereo unspecified) ?
label 1

Per the assay record, what outcome was assigned to "CC(C)C(=O)N1CCN(c2ccc(NC(=O)c3ccc4c(c3)OCCO4)cc2Cl)CC1" ?
label 0

Per the assay record, what outcome was assigned to "CC1=C(C(=O)Nc2ccccc2C(=O)NCc2ccccc2)SCCO1" ?
label 0

====

# Lookup of reported inhibition keyed by entry
- Measurement target: Steroidogenic factor 1 (Homo sapiens)
- Test protocol: SF1 (NR5A1) inverse agonists, counter-screen for LRH-1 inverse agonist project, cell-based, luminescence, high throughput (AID 651614);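 also: cells cotransfected with StAR promoter reporter and SF1 expression vector; 0% = vehicle on cells with receptor and 100% = vehicle on cells lacking receptor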
- Condition info: cell-based SF1 luciferase reporter, at 3.6 µM, hits give high values
Provide only the numeric value, understood in %.

{"columns": ["Compound", "Recorded measurement"],
 "data": [
  ["Cc1ccc[n+](CC(=O)Nc2ccc([N+](=O)[O-])cc2)c1", 57]
]}

inhibition for Steroidogenic factor 1 (Homo sapiens) with input OC(c1ccc2ccccc2n1)c1c(Cl)cccc1Cl (stereo not drawn) equals 41.4

inhibition for Steroidogenic factor 1 (Homo sapiens) with input "Cc1c([N+](=O)[O-])cc(C(=O)Nc2ccc(Cc3ccncc3)cc2)cc1[N+](=O)[O-]" equals 45

inhibition for Steroidogenic factor 1 (Homo sapiens) with input C=C1C(=O)[C@]23C[C@H]1CCC2[C@@]1(C)C(C[C@@H]3O)[C@](C)(C(=O)OC)CC[C@@H]1O (stereo partly drawn) equals 42.4

inhibition for Steroidogenic factor 1 (Homo sapiens) with input "CCN(CC)S(=O)(=O)c1ccc(N2CCCC2)c(NC(=O)c2ccc([N+](=O)[O-])o2)c1" equals 56.6

====

# Lookup of reported inhibition keyed by entry
- Test protocol: StAR promoter reporter inhibitors, counter-screen for LRH-1 inverse agonist project, cell-based, luminescence, high throughput (AID 651611)
- Condition info: StAR promoter luciferase reporter counterscreen, at 3.6 µM, hits give high values
Provide only the numeric value, understood in %.

# annotated cases, reported inhibition shown
{"columns": ["Compound", "Endpoint name", "Unit info", "Recorded measurement"],
 "data": [
  ["CC(NC(=O)c1ccco1)C(c1cccs1)N1CCN(c2ccccc2F)CC1 (stereo not drawn)", "inhibition", "%", 3.57],
  ["C=C1C(=O)c2sccc2C(c2ccc(OC)c(OC)c2)C1COC(C)=O (stereo not drawn)", "inhibition", "%", 69.8],
  ["O=C(COc1ccc(Cl)cc1Cl)Nc1ccccn1", "inhibition", "%", 46.9],
  ["COc1ccc(Nc2nc(-c3cccnc3)nc3ccccc23)cn1", "inhibition", "%", 28.2],
  ["Cc1ccccc1C(=O)NC1CCN(CC(=O)Nc2ccc(Br)cc2)CC1", "inhibition", "%", 5.55],
  ["CCc1nc(SCC(=O)c2ccccc2)c2ccccc2n1", "inhibition", "%", 7.58],
  ["COc1ccc(OCCNC(=O)C2(C)CCN2Cc2ccc3ccccc3c2)cc1 (stereo not drawn)", "inhibition", "%", 13.6],
  ["CCOc1cccc(/C=N/NC(=S)Nc2ccccc2[N+](=O)[O-])c1O", "inhibition", "%", 66.1]
]}

The compound "CCCn1c(NC(=O)c2ccc([N+](=O)[O-])o2)nc2ccccc21" showed inhibition equal to 18.9

The compound "COc1ccc(C)cc1NS(=O)(=O)c1ccc(-c2cnc(C3CC3)o2)cc1" showed inhibition equal to 41.5

====

- Measurement target: Nuclear receptor coactivator 1 (Homo sapiens)
- Test protocol: SRC1 coactivator transcriptional activity inhibitors, confirmation, cell-based, luminescence, quadruplicate (AID 588820);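 also: 0% = DMSO wells and 100% = gossypol 36 µM treated wells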
- Condition info: HEK293 GAL4-SRC1 luciferase reporter, at 3.6 µM
Calls of active or inactive are those of the source.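 The calls were made as follows: active = mean inhibition above 46.68%, the untreated control wells mean plus 3 SD; inactive = the rest.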
Choose one outcome from this list and give only that: 1 for active, 0 for inactive

Per the assay record, what outcome was assigned to "O=C(Nc1ccc2c(c1)OCCO2)c1[nH]c(C(F)(F)F)nc1-c1ccccc1" ?
0

Per the assay record, what outcome was assigned to "COc1cc(-c2cc3nc4ccccc4n3c(N)c2C#N)cc(OC)c1OC" ?
0

Per the assay record, what outcome was assigned to CSCCC(NC(=O)c1ccco1)C(=O)OCC(=O)N(Cc1ccccc1)C(C)(C)C (stereo not given) ?
0

Per the assay record, what outcome was assigned to "COc1ccc(-c2cn(-c3ccc(OC)cc3)c3[n+]2-c2ccccc2CC3)cc1" ?
0

Per the assay record, what outcome was assigned to CCC(=O)NC(c1ccc(Cl)cc1Cl)c1ccc2cccnc2c1O (stereo not given) ?
1

====

- Test protocol: VP16 transactivation reporter inhibitors, counter-screen for LRH-1 inverse agonist project, cell-based, luminescence, high throughput (AID 651615)
- Condition info: Gal4-VP16 luciferase reporter cells, at 3.6 µM, hits give high values
# Lookup of reported inhibition keyed by entry
Provide only the numeric value, understood in %.

# annotated cases, reported inhibition shown
{"columns": ["Compound", "inhibition (%)"],
 "data": [
  ["COc1ccc(NC(=O)CSc2nc(O)cc(=O)n2-c2ccccc2OC)cc1", 2.37],
  ["Brc1ccc2ncnc(NCc3ccccc3)c2c1", 80.8],
  ["O=C(N/N=C/c1ccc([N+](=O)[O-])o1)c1ccc2c(c1)OCO2", -5.58],
  ["CCC1CCCCN1C(=O)c1ccc([N+](=O)[O-])o1 (stereo unspecified)", 3.65],
  ["CC(C)(C)c1ccc(-c2cn(-c3ccc(Br)cc3)c3[n+]2CCCS3)cc1", 89.2],
  ["CCCc1cc(=O)oc2cc(C)cc(OCC(=O)NC3CC3)c12", -6.08],
  ["COc1cc(/C=N/NC(N)=S)cc(Br)c1OCc1ccccc1F", 40.5],
  ["CC1(C)CC(N2CCCCC2)=CC(=[N+]2CCCCC2)C1", 67.3]
]}

The compound "Cc1[nH]c(=O)c(C(=O)/C=C/c2ccccc2)c2c1CCCC2" showed inhibition equal to 74.8

The compound "N#Cc1cc2c(nc1SCC(=O)N1CCOCC1)CCCCC2" showed inhibition equal to -62.9

The compound "CCOc1cccc(/C=N/NC(=S)Nc2ccccc2[N+](=O)[O-])c1O" showed inhibition equal to 54

The compound "CC(=O)Nc1ccc(SCC(=O)c2cc(C)n(-c3ccccc3F)c2C)cc1" showed inhibition equal to -26

The compound "Cc1[nH]c2ccccc2c(=O)c1C(=O)/C=C/c1ccccc1" showed inhibition equal to 77.8
